Target: Claudin18.2-His protein (human)
Experiment: indirect ELISA on coated Claudin18.2-His
EC50 reference
Write the number in µg/mL without appending the unit.

* 286C7F11 (antibody, V domains shown) VH: QVQLKESGPGLVAPSQSLSITCTVSGFSLTDYGVSWIRQPPGKGLEWLGVIWNRGNTYYNSALKSRLSISKDNSKSQVFLRMNSLQTDDTAMYYCAKHDFLRFLDYWGQGTTLTVSS VL: DVVMTQSPSSLTVTAGEKVTMSCKSSQSLLNSGNQKNYLTWYQQKPGQPPKILIYWASTRESGVPDRFTGSGSGTDFSLTITSVQAEDLAVYYCLNDYYYPLTFGAGTKLELK | 0.0155

From here, focus on the item given below.
Would you mind telling me what EC50 value was observed for 203A6D5 (antibody, V domains shown) VH: QVQLKQSGPGLVQPSQSLSITCTVSGFSLTRYGVHWVRQSPGKGLEWLGVIWSGGNTDYNAAFISRLNIRKDNSKSQVFFKMNSLKPNDTAIYYCARAAYFGNSFDYWGQGTTLTVSS VL: DIVMTQSPSSLPVTAGEKVTMSCKSSQSLLNSGNQKNYLTWYQQKPGQPPKLLIYWASTRDSGVPDRFTGSGSGTDFTLTISSVQAEDLAVYYCQNNYIYPLTFGAGTKLELK ?
0.0271
